- Test system: hERG transduced U-2 OS cells
- Test Name: in vitro
- Assay type: cell-based, human
- Condition Set: read-out: Cytotoxicity IC50 (cell viability, intracellular ATP content); 30-minute treatment, hERG transduced U-2 OS cells, up to 92 μM
Collected IC50 values appear next to each entry.
Number in µM, nothing else.

# Compound, Result Type, Unit, Readout Number
records = [
    ("CN(C)c1ccc(C(=C2C=CC(=[N+](C)C)C=C2)c2ccccc2)cc1.CN(C)c1ccc(C(=C2C=CC(=[N+](C)C)C=C2)c2ccccc2)cc1.O=C(O)C(=O)O.O=C([O-])C(=O)O.O=C([O-])C(=O)O [malachite green oxalate]", "IC50", "µM", 31),
]

Quick note, IC50 for CCCCCCCC[N+](CCCCCCCC)(CCCCCCCC)CCCCCCCC.[Br-] [tetra-n-octylammonium bromide] landed at 34

---

- Tested System: hERG channel (Homo sapiens)
- Test Name: FluxOR thallium influx assay in hERG transduced U-2 OS cells
- Condition Set: confirmation study, hERG transduced cells, mean ± SD of three experiments
Result Type: Confirmation Efficacy (inhibition of thallium influx as a % of positive control) (%)
Number in %, nothing else.

# Compound, Readout Number
records = [
    ("Nc1ccc2cc3ccccc3cc2c1 [2-aminoanthracene]", 67),
    ("CN(C)c1ccc(C(=C2C=CC(=[N+](C)C)C=C2)c2ccccc2)cc1.CN(C)c1ccc(C(=C2C=CC(=[N+](C)C)C=C2)c2ccccc2)cc1.O=C(O)C(=O)O.O=C([O-])C(=O)O.O=C([O-])C(=O)O [malachite green oxalate]", 108),
    ("CCCCCCCC[N+](CCCCCCCC)(CCCCCCCC)CCCCCCCC.[Br-] [tetra-n-octylammonium bromide]", 100),
]

Could you now consider this next compound?
Observed Confirmation Efficacy (inhibition of thallium influx as a % of positive control) on hERG channel (Homo sapiens), entry Clc1ccc(C(c2ccccc2Cl)C(Cl)(Cl)Cl)cc1 (stereo not shown) [o,p′-DDT] , equals 58

---

- Tested System: human KV1.3 voltage gated K+ channel (Homo sapiens, UniProt P22001)
- Sequence (P22001 whole entry): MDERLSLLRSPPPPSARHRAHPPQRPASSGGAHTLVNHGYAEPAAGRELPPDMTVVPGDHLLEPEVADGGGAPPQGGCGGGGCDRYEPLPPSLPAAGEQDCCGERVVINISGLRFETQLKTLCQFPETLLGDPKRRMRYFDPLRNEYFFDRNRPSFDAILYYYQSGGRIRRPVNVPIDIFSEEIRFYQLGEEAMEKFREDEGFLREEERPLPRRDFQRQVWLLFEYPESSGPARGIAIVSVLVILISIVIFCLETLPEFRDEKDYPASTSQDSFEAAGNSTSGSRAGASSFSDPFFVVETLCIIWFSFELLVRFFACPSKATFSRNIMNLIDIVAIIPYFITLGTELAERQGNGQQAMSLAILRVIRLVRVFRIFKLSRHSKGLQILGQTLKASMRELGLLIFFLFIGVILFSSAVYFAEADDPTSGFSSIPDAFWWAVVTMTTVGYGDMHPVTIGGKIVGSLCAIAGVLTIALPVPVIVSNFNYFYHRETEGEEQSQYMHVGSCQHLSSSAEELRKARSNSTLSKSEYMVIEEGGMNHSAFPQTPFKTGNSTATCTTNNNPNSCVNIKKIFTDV
- Test Name: KV1.3 thallium influx assay in KV1.3 stably transfected CHO DUKX cells
Result Type: pIC50
Keep in mind that pIC50 stands for -log10 of concentration in molar terms.

# Compound, Result Type, Readout Number
records = [
    ("Clc1ccc(C(c2ccccc2Cl)C(Cl)(Cl)Cl)cc1 (stereo not shown)", "pIC50", 4.46),
]

Quick note, pIC50 for CCCCCCCCCCCC[N+](C)(C)CCOc1ccccc1 [domiphen bromide] landed at 5.28

Quick note, pIC50 for COC(=O)[C@H]1[C@H]2C[C@@H]3c4[nH]c5cc(OC)ccc5c4CCN3C[C@H]2C[C@@H](OC(=O)c2cc(OC)c(OC)c(OC)c2)[C@@H]1OC [reserpine, reference compound] landed at 4.24

Quick note, pIC50 for Clc1ccc(COC(Cn2ccnc2)c2ccc(Cl)cc2Cl)cc1 (stereo not shown) [econazole nitrate, reference compound] landed at 4.52

---

- Tested System: UniProt:Q12809
- Test Name: Automated whole cell patch clamp, hERG tail current in hERG CHO-K1 cells
- Condition Set: read-out: IC50 in the patch clamp assay; as stated in abstract
Result Type: IC50 (nM)
Number in nM, nothing else.

Quick note, IC50 for CCCCCCCC[N+](CCCCCCCC)(CCCCCCCC)CCCCCCCC.[Br-] [tetra-n-octylammonium bromide] landed at 80

---

- Tested System: hERG channel (Homo sapiens, UniProt Q12809)
- Sequence (Q12809 whole entry): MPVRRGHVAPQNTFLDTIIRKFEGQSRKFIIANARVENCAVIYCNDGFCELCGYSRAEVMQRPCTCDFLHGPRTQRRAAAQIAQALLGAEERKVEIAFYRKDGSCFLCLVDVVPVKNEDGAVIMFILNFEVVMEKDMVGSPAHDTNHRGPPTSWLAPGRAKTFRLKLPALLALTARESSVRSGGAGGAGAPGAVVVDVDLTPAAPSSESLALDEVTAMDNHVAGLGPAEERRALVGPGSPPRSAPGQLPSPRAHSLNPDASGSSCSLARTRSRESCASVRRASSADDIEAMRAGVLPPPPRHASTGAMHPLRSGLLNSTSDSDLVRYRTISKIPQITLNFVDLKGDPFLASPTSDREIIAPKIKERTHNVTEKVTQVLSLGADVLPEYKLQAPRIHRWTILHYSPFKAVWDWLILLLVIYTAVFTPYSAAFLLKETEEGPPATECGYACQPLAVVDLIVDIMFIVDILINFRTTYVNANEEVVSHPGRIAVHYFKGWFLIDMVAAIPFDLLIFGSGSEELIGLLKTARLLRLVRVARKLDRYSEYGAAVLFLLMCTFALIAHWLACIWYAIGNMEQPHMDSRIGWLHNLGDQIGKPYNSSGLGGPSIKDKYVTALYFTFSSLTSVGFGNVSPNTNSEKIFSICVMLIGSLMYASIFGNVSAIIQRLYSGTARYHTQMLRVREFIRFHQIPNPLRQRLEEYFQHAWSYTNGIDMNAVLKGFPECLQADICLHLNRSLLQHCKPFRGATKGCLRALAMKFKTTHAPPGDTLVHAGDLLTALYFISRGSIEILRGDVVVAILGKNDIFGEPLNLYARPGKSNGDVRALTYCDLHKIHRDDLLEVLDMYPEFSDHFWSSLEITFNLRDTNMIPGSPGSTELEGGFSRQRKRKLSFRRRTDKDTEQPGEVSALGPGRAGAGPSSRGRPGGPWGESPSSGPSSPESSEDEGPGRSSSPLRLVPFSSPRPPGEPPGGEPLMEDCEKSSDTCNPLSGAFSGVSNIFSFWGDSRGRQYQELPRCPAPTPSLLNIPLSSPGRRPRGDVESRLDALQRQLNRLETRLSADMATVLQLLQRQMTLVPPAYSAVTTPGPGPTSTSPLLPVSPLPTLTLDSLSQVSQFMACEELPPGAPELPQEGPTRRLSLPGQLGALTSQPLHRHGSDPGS
- Test Name: FluxOR thallium influx assay in hERG transduced U-2 OS cells
- Condition Set: Confirmation IC50 (thallium influx, hERG)
Result Type: pIC50
Keep in mind that pIC50 stands for -log10 of concentration in molar terms.

Quick note, pIC50 for COC(=O)[C@H]1[C@H]2C[C@@H]3c4[nH]c5cc(OC)ccc5c4CCN3C[C@H]2C[C@@H](OC(=O)c2cc(OC)c(OC)c(OC)c2)[C@@H]1OC [reserpine, reference compound] landed at 5.31

---

Collected Selectivity Fold (hERG over KV1.3) values appear next to each entry.
- Tested System: human KV1.3 voltage gated K+ channel (Homo sapiens)
- Test Name: KV1.3 thallium influx assay in KV1.3 stably transfected CHO DUKX cells
- Condition Set: potency difference KV1.3 IC50 / hERG IC50, thallium influx assays
Number in fold, nothing else.

# Molecule, Unit, Selectivity Fold (hERG over KV1.3)
measured = [
    ("CN(C)c1ccc(C(=C2C=CC(=[N+](C)C)C=C2)c2ccccc2)cc1.CN(C)c1ccc(C(=C2C=CC(=[N+](C)C)C=C2)c2ccccc2)cc1.O=C(O)C(=O)O.O=C([O-])C(=O)O.O=C([O-])C(=O)O [malachite green oxalate]", "fold", 6.5),
]

Quick note, Selectivity Fold (hERG over KV1.3) for CCCCCCCC[N+](CCCCCCCC)(CCCCCCCC)CCCCCCCC.[Br-] [tetra-n-octylammonium bromide] landed at 42

---

- Tested System: human KV1.3 voltage gated K+ channel (Homo sapiens)
- Test Name: KV1.3 thallium influx assay in KV1.3 stably transfected CHO DUKX cells
- Condition Set: thallium influx in KV1.3 cells, relative to 1 μM psoralen
Collected KV 1.3 Efficacy (inhibition of thallium influx as a % of positive control) values appear next to each entry.
Number in %, nothing else.

# count of solved cases: 2
# Compound, Unit, Readout Number
records = [
    ("CN(C)c1ccc(C(=C2C=CC(=[N+](C)C)C=C2)c2ccccc2)cc1.CN(C)c1ccc(C(=C2C=CC(=[N+](C)C)C=C2)c2ccccc2)cc1.O=C(O)C(=O)O.O=C([O-])C(=O)O.O=C([O-])C(=O)O [malachite green oxalate]", "%", 89),
    ("Clc1ccc(C(c2ccccc2Cl)C(Cl)(Cl)Cl)cc1 (stereo not drawn) [o,p′-DDT]", "%", 61),
]

Could you now consider this next compound?
Quick note, KV 1.3 Efficacy (inhibition of thallium influx as a % of positive control) for CCCCCCCC[N+](CCCCCCCC)(CCCCCCCC)CCCCCCCC.[Br-] [tetra-n-octylammonium bromide] landed at 72

---

- Tested System: hERG channel (Homo sapiens, UniProt Q12809)
- Test Name: FluxOR thallium influx assay in hERG transduced U-2 OS cells
- Condition Set: qHTS (two runs) IC50
Result Type: pIC50
Keep in mind that pIC50 stands for -log10 of concentration in molar terms.

Quick note, pIC50 for COC(=O)[C@H]1[C@H]2C[C@@H]3c4[nH]c5cc(OC)ccc5c4CCN3C[C@H]2C[C@@H](OC(=O)c2cc(OC)c(OC)c(OC)c2)[C@@H]1OC [reserpine, reference compound] landed at 5.12

---

Collected IC50 values appear next to each entry.
- Tested System: UniProtKB Q12809
- Test Name: Automated whole cell patch clamp, hERG tail current in hERG CHO-K1 cells
Number in µM, nothing else.

# count of solved cases: 2
# Molecule, IC50 / µM
records = [
    ("Clc1ccc(C(c2ccccc2Cl)C(Cl)(Cl)Cl)cc1 (stereo not shown) [o,p′-DDT]", 2.6),
    ("COC(=O)[C@H]1[C@H]2C[C@@H]3c4[nH]c5cc(OC)ccc5c4CCN3C[C@H]2C[C@@H](OC(=O)c2cc(OC)c(OC)c(OC)c2)[C@@H]1OC [reserpine, reference compound]", 1.9),
]

Could you now consider this next molecule?
Quick note, IC50 for CCCCCCCCCCCC[N+](C)(C)CCOc1ccccc1 [domiphen bromide] landed at 1.5

---

- Tested System: UniProt:Q12809
Result Type: IC50
Enter the number, and then the unit.

Observed IC50 on UniProt:Q12809, entry CCCCCCc1ccc(-c2ccc(C#N)cc2)cc1 , equals 8.2 µM
